- targetEntity: rPvLDH, lactate dehydrogenase (Plasmodium vivax, UniProt Q4PRK9 1-316)
- methodNotes: ELONA
- measurementConditions: protein: recombinant; chain copies: 4
measurementType: Kd (nM)
Answers are plain numbers, in nM.

Data point: GTTCGATTGGATTGTGCCGGAAGTGCTGGCTCGAAC (ssDNA) [pL1] ; Kd = 79.2
